inhibition at 1 µM by entry:
test_system: hDGAT1 (Homo sapiens)
test_description: In-vitro DGAT1 assay (14C oleoyl CoA, hDGAT1 microsomes from Sf9 cells)
condition_label: read-out: % Inhibition of hDGAT1

The following compounds have reported results that may help.
> print(dat)
                               entry.smiles   recorded.endpoint  value.reported
1  CCC(C#N)(CC)c1ccc(C(=O)Nc2ccc(-c3ccc4c(c3)C(=O)N([C@H](C(=O)O)C(C)C)C4)cc2)cc1  inhibition at 1 µM           > 50%
2  COc1ccccc1NC(=S)Nc1ccc(-c2ccc3c(c2)C(=O)N([C@H](C(=O)O)C(C)C)C3)cc1  inhibition at 1 µM       10 to 50%
3  CC(C)[C@@H](C(=O)O)N1Cc2ccc(-c3ccc(NC(=O)Nc4ccc(C(F)(F)F)cc4)cc3)cc2C1=O  inhibition at 1 µM           > 50%

Would you kindly share the measured inhibition at 1 µM for `Cc1ccc(C(=O)Nc2ccc(-c3ccc4c(c3)CN([C@H](C(=O)O)C(C)C)C4=O)cc2)cc1` ?
10 to 50%

Next up: `CC(C)[C@@H](C(=O)O)N1Cc2ccc(-c3ccc(NC(=O)c4ncc(-c5ccccc5)o4)cc3)cc2C1=O`
> 50%

Please answer likewise for `CC(C)[C@@H](C(=O)O)N1Cc2ccc(-c3ccc(NC(=O)c4ccc5c(c4)OCO5)cc3)cc2C1=O`
> 50%

###

Entries and their inhibition at 1 µM
test_system: hDGAT1 (Homo sapiens, UniProt O75907)
Sequence (O75907 whole entry): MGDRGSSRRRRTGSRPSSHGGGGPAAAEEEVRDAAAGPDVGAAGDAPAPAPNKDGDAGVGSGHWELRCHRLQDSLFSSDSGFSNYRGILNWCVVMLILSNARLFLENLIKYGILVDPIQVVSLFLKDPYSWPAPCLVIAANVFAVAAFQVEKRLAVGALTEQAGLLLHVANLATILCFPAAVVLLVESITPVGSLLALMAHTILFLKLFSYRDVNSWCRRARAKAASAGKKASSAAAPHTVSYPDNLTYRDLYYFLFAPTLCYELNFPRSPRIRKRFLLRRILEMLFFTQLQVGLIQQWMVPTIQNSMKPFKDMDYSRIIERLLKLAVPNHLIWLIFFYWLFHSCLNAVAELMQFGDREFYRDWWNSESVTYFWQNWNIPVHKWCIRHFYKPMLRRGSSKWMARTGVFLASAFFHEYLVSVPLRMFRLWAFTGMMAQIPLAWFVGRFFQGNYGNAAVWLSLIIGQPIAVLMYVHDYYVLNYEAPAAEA
test_description: In-vitro DGAT1 assay (14C oleoyl CoA, hDGAT1 microsomes from Sf9 cells)
condition_label: read-out: % Inhibition of hDGAT1

// known answers, use as guide
> print(dat)
                                   compound  value.reported
1  CC(C)[C@@H](C(=O)O)N1Cc2ccc(-c3ccc(NC(=O)c4ccc(C(C)(C)C)cc4)nc3)cc2C1=O           > 50%
2  CCCCCCCCCCc1ccc(C(=O)Nc2ccc(-c3ccc4c(c3)C(=O)N([C@H](C(=O)O)C(C)C)C4)cc2)cc1           > 50%
3  COc1cccc(NC(=S)Nc2ccc(-c3ccc4c(c3)C(=O)N([C@H](C(=O)O)C(C)C)C4)cc2)c1           > 50%
4  O=C(O)CCCN1Cc2cc(-c3ccc(NC(=O)Nc4cccc(C(F)(F)F)c4)cc3)ccc2C1=O       10 to 50%
5  Cc1cc(NC(=O)c2ccc(OC(F)(F)F)cc2)ccc1-c1ccc2c(c1)C(=O)N([C@H](C(=O)O)C(C)C)C2           > 50%
6  CC(C)[C@@H](C(=O)O)N1Cc2ccc(-c3ccc(NC(=O)c4ccc(N5CCOCC5)nc4)cc3)cc2C1=O       10 to 50%

I have this compound here, `CC(C)[C@@H](C(=O)O)N1Cc2cc(-c3ccc(NC(=O)Nc4ccc(F)cc4)cc3)ccc2C1=O` , and I need its recorded inhibition at 1 µM.
> 50%

How about `CC(C)[C@@H](C(=O)O)N1Cc2cc(-c3ccc(NC(=O)Nc4ccc(F)c(F)c4)cc3)ccc2C1=O` ?
> 50%

Request: `Cc1cc(C(=O)Nc2ccc(-c3ccc4c(c3)C(=O)N([C@H](C(=O)O)C(C)C)C4)cc2)ccc1F`
> 50%
